assay: Cytotoxicity against HEK293T cells assessed as cell viability at 50 uM by CellTiter-Glo assay relative to control; settings: human
Non-standard residues stand in square brackets, D forms with d. Residues, ends and D or L forms follow the SMILES beside them. *: point of attachment. X1 = O=C(OCCCS*)Oc1ccc2nc(C3=N[C@@H](C(=O)O)CS3)sc2c1; Mpa = O=C(O)CCS
# note: boundary value 90% maps to Not satisfied; viability at 50 µM below it maps to Satisfied

• CC(C)C[C@H](NC(=O)[C@H](CCCCN)NC(=O)[C@H](Cc1c[nH]c2ccccc12)NC(=O)[C@H](CCCNC(=N)N)NC(=O)[C@H](CCCCN)NC(=O)[C@H](CC(C)C)NC(=O)[C@@H](NC(=O)[C@H](CCCNC(=N)N)NC(=O)CCSSCCCOC(=O)Oc1ccc2nc(C3=N[C@@H](C(=O)O)CS3)sc2c1)C(C)C)C(=O)N[C@@H](Cc1ccccc1)C(=O)N[C@@H](CC(N)=O)C(N)=O ([Mpa](X1)RVLKRWKLFN-NH2) = Satisfied
• CC(C)C[C@H](NC(=O)[C@H](CO)NC(=O)CCSSCCCOC(=O)Oc1ccc2nc(C3=N[C@@H](C(=O)O)CS3)sc2c1)C(=O)N[C@@H](CCCCN)C(=O)N[C@H](C(=O)N[C@@H](CCCNC(=N)N)C(=O)N[C@H](C(=O)N[C@@H](CC(C)C)C(=O)N[C@@H](CCCCN)C(=O)N[C@@H](CCCNC(=N)N)C(=O)N[C@@H](Cc1c[nH]c2ccccc12)C(N)=O)C(C)C)[C@@H](C)O ([Mpa](X1)SLKTRVLKRW-NH2) = Satisfied
• CC(C)C[C@H](NC(=O)CCSSCCCOC(=O)Oc1ccc2nc(C3=N[C@@H](C(=O)O)CS3)sc2c1)C(=O)N[C@@H](CCCCN)C(=O)N[C@@H](CCCNC(=N)N)C(=O)N[C@@H](Cc1c[nH]c2ccccc12)C(=O)N[C@@H](CCCCN)C(=O)N[C@@H](CC(C)C)C(=O)N[C@@H](Cc1ccccc1)C(=O)N[C@@H](CC(N)=O)C(=O)N[C@@H](CCCCN)C(=O)N[C@@H](CCC(N)=O)C(N)=O ([Mpa](X1)LKRWKLFNKQ-NH2) = Not satisfied
• CC(C)C[C@H](NC(=O)[C@H](CCCCN)NC(=O)[C@H](Cc1c[nH]c2ccccc12)NC(=O)CCSSCCCOC(=O)Oc1ccc2nc(C3=N[C@@H](C(=O)O)CS3)sc2c1)C(=O)N[C@@H](Cc1ccccc1)C(=O)N[C@@H](CC(N)=O)C(=O)N[C@@H](CCCCN)C(=O)N[C@@H](CCC(N)=O)C(=O)N[C@@H](CCC(=O)O)C(=O)N[C@@H](Cc1c[nH]c2ccccc12)C(=O)N[C@H](C(N)=O)[C@@H](C)O ([Mpa](X1)WKLFNKQEWT-NH2) = Not satisfied
• CC(C)C[C@H](NC(=O)[C@H](CCCCN)NC(=O)[C@H](Cc1c[nH]c2ccccc12)NC(=O)[C@H](CCCNC(=N)N)NC(=O)[C@H](CCCCN)NC(=O)CCSSCCCOC(=O)Oc1ccc2nc(C3=N[C@@H](C(=O)O)CS3)sc2c1)C(=O)N[C@@H](Cc1ccccc1)C(=O)N[C@@H](CC(N)=O)C(=O)N[C@@H](CCCCN)C(=O)N[C@@H](CCC(N)=O)C(=O)N[C@@H](CCC(=O)O)C(N)=O ([Mpa](X1)KRWKLFNKQE-NH2) = Not satisfied

Attribution: ChEMBL document CHEMBL4049405
